# Tested on: Mythimna separata
# experiment-notes: Insecticidal activity against pre-third-instar larvae of Mythimna separata (Oriental armyworm) assessed as corrected mortality rate at 1 mg/ml measured after 20 days by the leaf-dipping method
# Type: functional
# experimental-context: 480 h
Assign class by mortality at 1000 µg/mL: not lower than 20% means rule met; lower than 20% means rule not met.

The examples below pair each entry with its known result.
{"query-smiles": "COc1cc([C@@H]2c3cc(OCc4ccccc4)c(OCc4ccccc4)cc3[C@@H](OC(=O)Cc3ccccc3)[C@H]3COC(=O)[C@H]23)cc(OC)c1OC", "cat": "rule not met"}
{"query-smiles": "COc1cc2c(cc1OC)[C@H](OC(=O)c1cccc([N+](=O)[O-])c1)[C@H]1COC(=O)[C@@H]1[C@@H]2c1cc(OC)c(OC)c(OC)c1", "cat": "rule not met"}
{"query-smiles": "COc1cc2c(cc1OC)[C@@H](O)[C@H]1COC(=O)[C@@H]1[C@@H]2c1cc(OC)c(OC)c(OC)c1", "cat": "rule met"}
{"query-smiles": "COc1cc2c(cc1OC)[C@H](OC(=O)CCl)[C@H]1COC(=O)[C@@H]1[C@@H]2c1cc(OC)c(OC)c(OC)c1", "cat": "rule not met"}
{"query-smiles": "COc1cc2c(cc1OC)[C@H](OC(C)=O)[C@H]1COC(=O)[C@@H]1[C@@H]2c1cc(OC)c(OC)c(OC)c1", "cat": "rule met"}

Q: Hello, I need to know if `COc1cc([C@@H]2c3cc(O)c(O)cc3[C@H](O)[C@H]3COC(=O)[C@H]23)cc(OC)c1OC` has measured mortality at 1000 µg/mL not below 20%. Thanks!
Result: rule not met

Q: Now try `COc1cc2c(cc1OC)[C@@H](OC(=O)Cc1ccccc1)[C@H]1COC(=O)[C@@H]1[C@@H]2c1cc(OC)c(OC)c(OC)c1` .
Result: rule not met

Q: For `COc1cc([C@@H]2c3cc4c(cc3[C@H](O)[C@H]3COC(=O)[C@H]23)OCO4)cc(OC)c1OC` then?
Result: rule met

Q: What do you have for `COc1cc([C@@H]2c3cc(OCc4ccccc4)c(OCc4ccccc4)cc3[C@@H](OC(=O)Cc3cccc4ccccc34)[C@H]3COC(=O)[C@H]23)cc(OC)c1OC` ?
Result: rule met

Q: Moving on to `CCCCCCCC(=O)O[C@H]1c2cc(OC)c(OC)cc2[C@@H](c2cc(OC)c(OC)c(OC)c2)[C@H]2C(=O)OC[C@@H]21`
Result: rule met

Q: Queued: `COc1cc2c(cc1OC)[C@@H](OC(=O)c1cccc([N+](=O)[O-])c1)[C@H]1COC(=O)[C@@H]1[C@@H]2c1cc(OC)c(OC)c(OC)c1`
Result: rule met

---

Reported mortality at 1000 µg/mL values are given for each entry in this list.
# System: Mythimna separata
# experiment-notes: Insecticidal activity against pre-third-instar larvae of Mythimna separata (Oriental armyworm) assessed as corrected mortality rate at 1 mg/ml measured after 20 days by the leaf-dipping method
# Assay type: functional
# experimental-context: 480 h
Write the answer as a number in %, unit excluded.

Field: example entries. Status: answers known.
{"query-smiles": "CCCC(=O)O[C@H]1c2cc(OC)c(OC)cc2[C@@H](c2cc(OC)c(OC)c(OC)c2)[C@H]2C(=O)OC[C@@H]21", "mortality at 1000 µg/mL, %": 20}
{"query-smiles": "CCCCCC(=O)O[C@@H]1c2cc(OC)c(OC)cc2[C@@H](c2cc(OC)c(OC)c(OC)c2)[C@H]2C(=O)OC[C@@H]21", "mortality at 1000 µg/mL, %": 26.7}
{"query-smiles": "CCCC(=O)O[C@@H]1c2cc(OC)c(OC)cc2[C@@H](c2cc(OC)c(OC)c(OC)c2)[C@H]2C(=O)OC[C@@H]21", "mortality at 1000 µg/mL, %": 10}

// next entry
Q: Which value of mortality at 1000 µg/mL has been reported for `COc1cc([C@@H]2c3cc(OCc4ccccc4)c(OCc4ccccc4)cc3[C@@H](OC(=O)c3cccc([N+](=O)[O-])c3)[C@H]3COC(=O)[C@H]23)cc(OC)c1OC` in the records?
Result: 6.7
